Test: Inhibition of almond beta-glucosidase assessed as reduction of p-nitrophenol release using p-nitrophenyl glycoside as substrate by spectrophotometric analysis
Set-up: species or system Prunus dulcis
Exercise: for every item that follows, state its recorded IC50.
One number for each entry, in µM.

Known IC50 results, listed for orientation:
O=C1CCCC=C1CCCCCCC[C@H]1N[C@H](CO)[C@@H](O)[C@@H]1O    9.8
OC[C@H]1N[C@H]([C@@H](O)CCCCCCc2ccccc2)[C@@H](O)[C@@H]1O    0.62
Cc1ccc(CCCCCC[C@H](O)[C@@H]2N[C@@H](CO)[C@H](O)[C@H]2O)cc1    89

// each listed molecule needs a value for IC50
1. OC[C@H]1N[C@H]([C@@H](O)CCCCCCc2ccc(F)c(F)c2)[C@@H](O)[C@@H]1O
2. CC(C)(C)c1ccc(CCCCCC[C@@H](O)[C@H]2N[C@H](CO)[C@@H](O)[C@@H]2O)cc1.Cl
3. Cl.OC[C@H]1N[C@H](CCCCCCCc2cccc(F)c2)[C@@H](O)[C@@H]1O
4. Cl.OC[C@H]1N[C@H]([C@@H](O)CCCCCCc2ccc(Cl)cc2)[C@@H](O)[C@@H]1O
5. CC(C)(C)c1ccc(CCCCCCC[C@H]2N[C@H](CO)[C@@H](O)[C@@H]2O)cc1.Cl
6. Cl.OC[C@H]1N[C@H]([C@H](O)CCCCCCc2ccc(F)cc2)[C@@H](O)[C@@H]1O

result:
1: 1.5; 2: 0.064; 3: 11.5; 4: 1.2; 5: 4.7; 6: 0.15

Provide IC50 for all items below, preserving their order.
1. Cl.OC[C@H]1N[C@H](CCCCCCCc2ccc(F)cc2)[C@@H](O)[C@@H]1O
2. CC(C)(C)c1ccc(CCCCCC[C@H](O)[C@H]2N[C@H](CO)[C@@H](O)[C@@H]2O)cc1
3. OC[C@H]1N[C@H](CCCCCCCc2ccccc2)[C@@H](O)[C@H]1O
4. Cc1ccc(CCCCCCC[C@H]2N[C@H](CO)[C@@H](O)[C@@H]2O)cc1.Cl
5. Cc1ccc(CCCCCC[C@@H](O)[C@H]2N[C@H](CO)[C@@H](O)[C@@H]2O)cc1
6. OC[C@H]1N[C@H]([C@@H](O)CCCCCCc2ccc(F)cc2)[C@@H](O)[C@@H]1O

result:
[15.6, 0.36, 464, 10, 0.082, 0.47]
